# target.under.test: GST-CIB1 : F-scrambled peptide (Homo sapiens)
# Construct: made in house; host or cells: BL-21 plus RIL cells (E. coli)
# Sequence (Q99828 whole entry): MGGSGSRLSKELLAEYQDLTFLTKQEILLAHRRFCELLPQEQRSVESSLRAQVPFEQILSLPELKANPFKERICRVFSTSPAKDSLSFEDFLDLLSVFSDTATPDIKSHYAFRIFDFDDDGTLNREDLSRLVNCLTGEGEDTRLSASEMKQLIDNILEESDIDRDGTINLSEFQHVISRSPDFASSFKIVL
# test.method.notes: FP scrambled-peptide counter screen, 1536-well format
# Assay type: binding
# experimental.setup: Table S3, counterscreen, qHTS curve class; a negative sign marks inhibitory curves
measure: Curve Class (counterscreen)
Write the value as a bare number.

// known answers, use as guide
# compound, target.under.test, recorded.result
measured = [
    ("CCCCCCCCn1cc(CC(N)=O)c2cc(-c3cccc(C)c3)ccc21.O=C(O)C(F)(F)F [NCGC00348156-02]", "GST-CIB1 : F-scrambled peptide (Homo sapiens)", -2.1),
    ("O=C(O)c1ccccc1SC1=NS(=O)(=O)c2ccccc21 [NCGC00188636-02]", "GST-CIB1 : F-scrambled peptide (Homo sapiens)", 4),
    ("O=C(O)c1csc(-n2nc(-c3ccc(F)c(F)c3)c3cccnc32)n1 [NCGC00356667-01]", "GST-CIB1 : F-scrambled peptide (Homo sapiens)", 3),
    ("CC[C@@H](c1ccc(F)c(F)c1)n1c(C(=O)OC)c(-c2ccno2)[nH]c1=S [NCGC00387465-01]", "GST-CIB1 : F-scrambled peptide (Homo sapiens)", 4),
]

Given the entry C[n+]1cc2c3c(ccc2c2ccc4cc5c(cc4c21)OCO5)OCO3.[Cl-] [NCGC00015959-09] , report its measured Curve Class (counterscreen).
4

Again, but for CNc1nc2c(s1)C(c1c(F)cccc1Cl)CC(=O)N2.O=C(O)C(F)(F)F (centres unmarked) [NCGC00488265-02]
4

Moving on to O=C(O)C(F)(F)F.O=C1CCCC2=C1C(c1ncccc1C(F)(F)F)N=C(Nc1nc3ccccc3o1)N2 (centres unmarked) [NCGC00189070-01]
-2.4

Further, for COc1cccc(C(=O)c2no[n+]([O-])c2C(=O)c2cccc(OC)c2)c1 [NCGC00351157-02] ?
-1.2
